Source of measurements: patent US20240109891A1

Measured pIC50 accompanies every entry in the list below.
system_name: KRAS-WT and SOS1 proteins (Homo sapiens, UniProt Q07889)
Construct: purchased Cisbio 63ADK000CB15PEG
Sequence (Q07889 whole entry): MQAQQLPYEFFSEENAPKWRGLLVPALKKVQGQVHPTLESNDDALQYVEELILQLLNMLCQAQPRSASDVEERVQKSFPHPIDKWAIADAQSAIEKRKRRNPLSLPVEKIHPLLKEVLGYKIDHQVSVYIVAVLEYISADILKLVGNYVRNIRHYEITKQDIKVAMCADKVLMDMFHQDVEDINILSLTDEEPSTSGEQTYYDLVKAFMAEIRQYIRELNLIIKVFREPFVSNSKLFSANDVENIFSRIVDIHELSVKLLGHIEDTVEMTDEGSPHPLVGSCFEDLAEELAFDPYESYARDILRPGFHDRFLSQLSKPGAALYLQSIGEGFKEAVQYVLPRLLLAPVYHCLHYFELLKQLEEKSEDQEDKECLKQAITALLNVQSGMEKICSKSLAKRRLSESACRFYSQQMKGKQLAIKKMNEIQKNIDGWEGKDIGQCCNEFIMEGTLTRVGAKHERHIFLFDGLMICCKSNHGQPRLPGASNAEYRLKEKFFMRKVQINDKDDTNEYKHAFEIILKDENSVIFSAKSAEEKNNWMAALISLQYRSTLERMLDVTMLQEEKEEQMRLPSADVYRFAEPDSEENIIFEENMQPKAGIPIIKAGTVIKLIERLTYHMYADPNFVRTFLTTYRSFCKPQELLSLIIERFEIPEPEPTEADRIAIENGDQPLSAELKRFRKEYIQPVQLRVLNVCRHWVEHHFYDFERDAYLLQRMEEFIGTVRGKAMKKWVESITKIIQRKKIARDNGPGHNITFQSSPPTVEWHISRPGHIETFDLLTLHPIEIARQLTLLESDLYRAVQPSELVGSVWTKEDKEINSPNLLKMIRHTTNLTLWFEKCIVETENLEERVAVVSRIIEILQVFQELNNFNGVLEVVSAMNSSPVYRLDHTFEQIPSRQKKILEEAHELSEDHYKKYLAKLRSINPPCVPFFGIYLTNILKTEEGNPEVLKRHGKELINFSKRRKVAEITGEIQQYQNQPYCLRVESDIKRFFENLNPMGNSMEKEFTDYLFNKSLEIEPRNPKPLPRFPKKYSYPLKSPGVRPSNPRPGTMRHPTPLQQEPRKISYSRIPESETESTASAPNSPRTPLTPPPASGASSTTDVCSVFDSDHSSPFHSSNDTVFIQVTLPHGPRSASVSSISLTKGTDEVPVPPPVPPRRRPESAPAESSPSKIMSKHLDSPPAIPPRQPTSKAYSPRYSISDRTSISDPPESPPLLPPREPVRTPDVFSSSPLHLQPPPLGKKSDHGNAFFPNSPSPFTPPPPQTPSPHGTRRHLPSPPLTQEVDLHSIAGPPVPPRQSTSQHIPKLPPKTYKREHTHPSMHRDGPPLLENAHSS
method_notes: KRAS-WT/SOS1 binding assay (HTRF)
stated_conditions: Tag1-SOS1 / Tag2-KRAS-WT, 10 μM GTP, read-out: Activity Data in Kras: SOS1 Assay, Wild Type
pIC50: −log10 of the molar value.
experimental_endpoint: pIC50

smiles_string=C[C@@H](Nc1nc2ccnn2c2cc(=O)n(C3(C)CC3)cc12)c1cccc(C(F)(F)F)n1 result="5.30 to 6.30"
smiles_string=CC(=O)N1CCC(Oc2cc3c(N[C@H](C)c4cccc5c4CCC5(F)F)nc(C)nc3c3cnn(C)c23)CC1 result="> 7.00"
smiles_string=C[C@@H](Nc1nc2ccnn2c2cc(=O)n([C@H]3CCOC3)cc12)c1cc(N)cc(C(F)(F)F)c1 result="> 7.00"
smiles_string=Cc1nc(N[C@H](C)c2cc(N)cc(C(F)(F)F)c2)c2cc(O[C@H]3CCOC3)c3nncn3c2n1 result="> 7.00"
smiles_string=Cc1c([C@@H](C)Nc2nc3ccnn3c3cc(=O)n(C4(C)CC4)cc23)cccc1C(F)(F)F result="> 7.00"
smiles_string=C[C@@H](Nc1nc2ccnn2c2cc(=O)n([C@H]3CCOC3)cc12)c1cccc(C(F)(F)F)c1 result="6.30 to 7.00"
smiles_string=CC(=O)N1CC[C@H](Oc2cc3c(N[C@H](C)c4cccc5c4CCC5(F)F)nc(C)nc3n3cnnc23)C1 result="> 7.00"
smiles_string=Cc1nc(N[C@H](C)c2cccc(C(F)(F)CO)c2)c2cc(N3CC[C@@H](O)C3)c3c(cnn3C)c2n1 result="> 7.00"
smiles_string=C[C@@H](Nc1nc2ccnn2c2cc(=O)n(C3CCN(C)CC3)cc12)c1cccc(C(F)(F)CO)c1 result="> 7.00"
smiles_string=Cc1nc(N[C@H](C)c2cccc(C(F)(F)CO)c2)c2cc(O[C@H]3CCOC3)c3nncn3c2n1 result="> 7.00"
smiles_string=COc1cc2c(cc1O[C@H]1CCOC1)c(N[C@H](C)c1cc(N)cc(C(F)(F)F)c1)nc1ccnn12 result="6.30 to 7.00"
smiles_string=COc1cc2c(cc1O[C@H]1CCOC1)c(N[C@H](C)c1cccc(C(F)(F)F)c1)nc1nccn12 result="> 7.00"
smiles_string=Cc1nc(N[C@H](C)c2cccc3c2CCC3(F)F)c2cc(O[C@H]3CCOC3)c3c(cnn3C)c2n1 result="> 7.00"
smiles_string=C[C@@H](Nc1nc2ccnn2c2cc(=O)n(C3CC(F)(F)C3)cc12)c1cccc(C(F)(F)CO)c1 result="> 7.00"
smiles_string=CC(=O)N1CCC(c2cc3c(N[C@H](C)c4cccc(C(F)(F)F)c4)nc(C)nc3n3cnnc23)CC1 result="> 7.00"
smiles_string=C[C@@H](Nc1nc2ccnn2c2cc(=O)n([C@H]3CCOC3)cc12)c1cccc(C(F)(F)CO)c1 result="> 7.00"
smiles_string=Cc1nc(N[C@H](C)c2cc(C(C)(C)O)cc(C(F)(F)F)c2)c2cc(-c3ccc(=O)n(C)c3)c3c(cnn3C)c2n1 result="< 5.30"
smiles_string=COc1cc2c(cc1-c1ccc(=O)n(C)c1)c(N[C@H](C)c1cccc(C(F)(F)CO)c1)nc1ccnn12 result="> 7.00"
smiles_string=C[C@@H](Nc1nc2ccnn2c2cc(=O)n(C3CC(F)(F)C3)cc12)c1cc(F)cc(C(F)(F)CO)c1 result="> 7.00"
smiles_string=Cc1nc(N[C@H](C)c2cccc(C(F)(F)CO)c2)c2cc(OC3CC(F)(F)C3)c3c(cnn3C)c2n1 result="6.30 to 7.00"
smiles_string=Cc1nc(N[C@H](C)c2cccc(C(F)(F)CO)c2)c2cc(O[C@H]3CCN(C)C3)c3nncn3c2n1 result="> 7.00"
smiles_string=CC(=O)N1CCC(n2cc3c(N[C@H](C)c4cccc(C(F)(F)CO)c4)nc4ccnn4c3cc2=O)CC1 result="> 7.00"
smiles_string=Cc1nc(N[C@H](C)c2cccc(C(F)(F)CO)c2)c2cc(C3CCNCC3)c3nncn3c2n1 result="> 7.00"
smiles_string=C[C@@H](Nc1nc(C(F)(F)F)nc2c1cc(-c1ccc(=O)n(C)c1)c1c2cnn1C)c1cccc(C(F)(F)CO)c1 result="6.30 to 7.00"
smiles_string=C[C@@H](Nc1nc2ccnn2c2cc(=O)n(C3CCNCC3)cc12)c1cccc(C(F)(F)CO)c1 result="> 7.00"
